From: ChEMBL document CHEMBL3392966

System: U-251
Assay: Antiproliferative activity against human U251 cells after 48 hrs by sulforhodamine B assay
Format: functional
Conditions: U-251, 48 h
Reported GI50 is given for each of the following molecules.
Give just the number in µg/mL; leave the unit off.

{"columns": ["molecule", "unit spec", "GI50"],
 "data": [
  ["CCCCC/C=C\\C/C=C\\CCCCCCCC(=O)N1CCCC1", "µg/mL", 4.2],
  ["CCCCCCCCCCCCCCCCCC(=O)NCCO [N-(2-HYDROXYETHYL)STEARAMIDE]", "µg/mL", 117],
  ["CCCCCCCC/C=C\\CCCCCCCC(=O)N[C@H](C)c1ccccc1", "µg/mL", 6.1],
  ["CCCCCC[C@@H](O)C/C=C\\CCCCCCCC(=O)N[C@@H](C)c1ccccc1", "µg/mL", 3.6],
  ["CCCCCC[C@@H](O)C/C=C\\CCCCCCCC(=O)NCCO", "µg/mL", 3.6]
]}

Data request: What value of GI50 on U-251 does CCCCCCCC/C=C\CCCCCCCC(=O)NCc1ccccc1 have?
Data returned: 55.4

Data request: What value of GI50 on U-251 does CCCCCCCC/C=C\CCCCCCCC(=O)N1CCOCC1 have?
Data returned: 2.8

* * *

Test system: U-251
Test: Antiproliferative activity against human U251 cells assessed as tumor growth inhibition after 48 hrs by sulforhodamine B assay
Type: functional
Details: U-251, 48 h
// classify: if (TGI < 10 µg/mL) rule met else rule not met

Would you please look over these solved cases?
{"columns": ["molecule", "classification"],
 "data": [
  ["CCCCCCCC/C=C\\CCCCCCCC(=O)NCCO [OLEOYLETHANOLAMIDE]", "rule not met"],
  ["CCCCCCCC/C=C\\CCCCCCCC(=O)NCc1ccccc1", "rule not met"],
  ["CCCCCC[C@@H](O)C/C=C\\CCCCCCCC(=O)N[C@@H](C)c1ccccc1", "rule not met"],
  ["CCCCCCCC/C=C\\CCCCCCCC(=O)N1CCCC1", "rule met"],
  ["CCCCCCCCCCCCCCCCCC(=O)NCCO [N-(2-HYDROXYETHYL)STEARAMIDE]", "rule not met"],
  ["CCCCCCCCCCCCCCCCCC(=O)N1CCOCC1", "rule not met"]
]}

Data request: Lab note: TGI threshold 10 µg/mL. Does this molecule come in strictly under it? CCCCCCCC/C=C\CCCCCCCC(=O)N[C@@H](C)c1ccccc1
Data returned: rule not met

Data request: Lab note: TGI threshold 10 µg/mL. Does this molecule come in strictly under it? CCCCCCCC/C=C\CCCCCCCC(=O)N1CCCCC1
Data returned: rule not met

Data request: Lab note: TGI threshold 10 µg/mL. Does this molecule come in strictly under it? CCCCCC[C@@H](O)C/C=C\CCCCCCCC(=O)NCCO
Data returned: rule met

Data request: Lab note: TGI threshold 10 µg/mL. Does this molecule come in strictly under it? CCCCC/C=C\C/C=C\CCCCCCCC(=O)N1CCCC1
Data returned: rule not met

Data request: Lab note: TGI threshold 10 µg/mL. Does this molecule come in strictly under it? CCCCC/C=C\C/C=C\CCCCCCCC(=O)N1CCCCC1
Data returned: rule not met

* * *

Tested on: Vero
Assay: Cytotoxicity against african green monkey Vero cells assessed as tumor growth inhibition after 48 hrs by sulforhodamine B assay
Type: cell-based
Settings: chlorocebus sabaeus
quantity name: TGI (µg/mL)
Give just the number in µg/mL; leave the unit off.

{"columns": ["structure smiles string", "system tested", "TGI [µg/mL]"],
 "data": [
  ["CCCCCC[C@@H](O)C/C=C\\CCCCCCCC(=O)N1CCCC1", "Vero", 6.8],
  ["CCCCCC[C@@H](O)C/C=C\\CCCCCCCC(=O)NCCO", "Vero", 7.6],
  ["CCCCCCCC/C=C\\CCCCCCCC(=O)N1CCCC1", "Vero", 10.6],
  ["CCCCC/C=C\\C/C=C\\CCCCCCCC(=O)N1CCCC1", "Vero", 45.1],
  ["CCCCCCCC/C=C\\CCCCCCCC(=O)N[C@H](C)c1ccccc1", "Vero", 43]
]}

Data request: Query: TGI; subject: COc1cccc2c1C(=O)c1c(O)c3c(c(O)c1C2=O)C[C@@](O)(C(=O)CO)C[C@@H]3O[C@H]1C[C@H](N)[C@H](O)[C@H](C)O1
Data returned: 4.1

* * *

Test system: HaCaT
Test: Cytotoxicity against human HaCaT cells assessed as tumor growth inhibition after 48 hrs by sulforhodamine B assay
Format: cell-based
quantity name: TGI (µg/mL)
Give just the number in µg/mL; leave the unit off.

Here's what some known entries look like.
{"columns": ["structure smiles string", "unit spec", "reported"],
 "data": [
  ["CCCCCCCC/C=C\\CCCCCCCC(=O)N[C@@H](C)c1ccccc1", "µg/mL", 36.8],
  ["CCCCCCCCCCCCCCCCCC(=O)N1CCCC1", "µg/mL", 27.4],
  ["CCCCCCCCCCCCCCCC(=O)N1CCOCC1", "µg/mL", 73.7],
  ["CCCCCC[C@@H](O)C/C=C\\CCCCCCCC(=O)NCc1ccccc1", "µg/mL", 66.5],
  ["CCCCC/C=C\\C/C=C\\CCCCCCCC(=O)N[C@@H](C)c1ccccc1", "µg/mL", 77.2],
  ["CCCCCC[C@@H](O)C/C=C\\CCCCCCCC(=O)N1CCCCC1", "µg/mL", 12.8],
  ["CCCCC/C=C\\C/C=C\\CCCCCCCC(=O)N1CCCCC1", "µg/mL", 30.5]
]}

Now examine the next entry.
Data request: What value of TGI on HaCaT does COc1cccc2c1C(=O)c1c(O)c3c(c(O)c1C2=O)C[C@@](O)(C(=O)CO)C[C@@H]3O[C@H]1C[C@H](N)[C@H](O)[C@H](C)O1 have?
Data returned: 2.3

* * *

Reported GI50 is given for each of the following compounds.
System: NCI-H460
Experiment: Antiproliferative activity against human NCI-H460 cells after 48 hrs by sulforhodamine B assay
Format: functional
Conditions: NCI-H460, 48 h
Give just the number in µg/mL; leave the unit off.

Here's what some known entries look like.
{"columns": ["compound", "GI50, µg/mL"],
 "data": [
  ["CCCCCCCCCCCCCCCCCC(=O)N1CCOCC1", 53.1],
  ["CCCCC/C=C\\C/C=C\\CCCCCCCC(=O)N1CCCCC1", 29.1],
  ["CCCCCC[C@@H](O)C/C=C\\CCCCCCCC(=O)NCCO", 4.1],
  ["CCCCCCCCCCCCCCCCCC(=O)N1CCCC1", 10.8],
  ["CCCCCC[C@@H](O)C/C=C\\CCCCCCCC(=O)N1CCCC1", 6.9]
]}

Data request: Query: GI50; subject: CCCCCCCC/C=C\CCCCCCCC(=O)N1CCCCC1
Data returned: 23

Data request: Query: GI50; subject: CCCCCC[C@@H](O)C/C=C\CCCCCCCC(=O)N[C@@H](C)c1ccccc1
Data returned: 8.3

Data request: Query: GI50; subject: CCCCCC[C@@H](O)C/C=C\CCCCCCCC(=O)NCc1ccccc1
Data returned: 32.3

Data request: Query: GI50; subject: CCCCC/C=C\C/C=C\CCCCCCCC(=O)N1CCCC1
Data returned: 7

Data request: Query: GI50; subject: CCCCCC[C@@H](O)C/C=C\CCCCCCCC(=O)N1CCCCC1
Data returned: 10.7

Data request: Query: GI50; subject: CCCCCC[C@@H](O)C/C=C\CCCCCCCC(=O)N1CCOCC1
Data returned: 49.1

Data request: Query: GI50; subject: CCCCCCCCCCCCCCCC(=O)N1CCCC1
Data returned: 5.9

Data request: Query: GI50; subject: CCCCC/C=C\C/C=C\CCCCCCCC(=O)N[C@@H](C)c1ccccc1
Data returned: 6.1

Data request: Query: GI50; subject: CCCCCCCC/C=C\CCCCCCCC(=O)N[C@H](C)c1ccccc1
Data returned: 36.6

Data request: Query: GI50; subject: CCCCCCCC/C=C\CCCCCCCC(=O)NCc1ccccc1
Data returned: 94.9

Data request: Query: GI50; subject: CCCCCCCC/C=C\CCCCCCCC(=O)N1CCCC1
Data returned: 45.6

Data request: Query: GI50; subject: CCCCCCCC/C=C\CCCCCCCC(=O)N[C@@H](C)c1ccccc1
Data returned: 15.2

* * *

Test system: MCF7
Assay: Antiproliferative activity against human MCF7 cells assessed as tumor growth inhibition after 48 hrs by sulforhodamine B assay
Assay type: functional
Conditions: MCF7, 48 h
Class membership depends on TGI alone; the intervals are low interval (below 30 µg/mL), middle interval (30 µg/mL to below 50 µg/mL), high interval (50 µg/mL or more)

Would you please look over these solved cases?
{"columns": ["molecule", "system tested", "classification"],
 "data": [
  ["CCCCCCCC/C=C\\CCCCCCCC(=O)NCCO [OLEOYLETHANOLAMIDE]", "MCF7", "high interval"],
  ["CCCCCCCC/C=C\\CCCCCCCC(=O)N1CCOCC1", "MCF7", "low interval"],
  ["CCCCCCCCCCCCCCCC(=O)N1CCCC1", "MCF7", "low interval"],
  ["CCCCCCCCCCCCCCCCCC(=O)N1CCOCC1", "MCF7", "high interval"],
  ["CCCCCCCC/C=C/CCCCCCCC(=O)N[C@@H](C)c1ccccc1", "MCF7", "high interval"]
]}

Data request: Exam item: assign CCCCCCCCCCCCCCCCCC(=O)NCCO [N-(2-HYDROXYETHYL)STEARAMIDE] to the correct category.
Data returned: high interval

Data request: Exam item: assign CCCCCC[C@@H](O)C/C=C\CCCCCCCC(=O)NCCO to the correct category.
Data returned: low interval

Data request: Exam item: assign CCCCCCCCCCCCCCCC(=O)N1CCOCC1 to the correct category.
Data returned: high interval

Data request: Exam item: assign CCCCCCCC/C=C\CCCCCCCC(=O)N1CCCCC1 to the correct category.
Data returned: middle interval

Data request: Exam item: assign CCCCCCCCCCCCCCCCCC(=O)N[C@@H](C)c1ccccc1 to the correct category.
Data returned: high interval
